Target Or Test System: UniProt P08684
Assay Procedure: Determination of CYP3A4 inhibitory activity (human liver microsome, Luciferin-IPA)
Experimental Context: CYP3A4 IC50 (nM), 37° C. 11 minutes
Property Label: IC50

compound_structure=COC(=O)c1ccc(C(=O)Nc2ccc(CCN(Cc3cncc(OC)c3)Cc3cncc(OC)c3)cc2)c(NC(=O)c2cc(=O)c3ccccc3o2)c1 property_label=IC50 endpoint_value="< 100 nM"
compound_structure=CCN(CCc1ccc(NC(=O)c2cc(OC)c(OC)cc2NC(=O)c2cc(=O)c3ccccc3o2)cc1)Cc1ccc(OCCn2ccnc2)c(OC)c1 property_label=IC50 endpoint_value="100 to 250 nM"
compound_structure=COc1cc(NC(=O)c2cc(=O)c3ccccc3o2)c(C(=O)Nc2ccc(CCN(Cc3ccc(-n4ccnc4)cc3)Cc3ccc4cnn(C)c4c3)cc2)cc1OC property_label=IC50 endpoint_value="100 to 250 nM"

----------
Target Or Test System: UniProt P08684
Assay Procedure: Determination of CYP3A4 inhibitory activity (human liver microsome, Luciferin-IPA)
Experimental Context: CYP3A4 IC50 (nM), 37° C. 11 minutes
Procedure: The standard final Compound concentrations were 37, 111, 333, 1000, and 3000 nM. 12.5 μL of the Compound dilutions were transferred to a white 96-well plate. […] 25 μL of the buffer was added to each well. The plates were incubated at 37° C. for 11 minutes. 50 μL of luciferin detection reagent (Promega V9002) was added and the plates were incubated at room temperature for 5 minutes. The plate was read with a luminometer. […]
This listing pairs compounds with measured IC50.
Property Label: IC50

compound_structure=COc1cc(NC(=O)c2cc(=O)c3ccccc3o2)c(C(=O)Nc2ccc(CCN3CCc4cnccc4C3)cc2)cc1OC property_label=IC50 endpoint_value="< 100 nM"
compound_structure=COc1cc(NC(=O)c2cc(=O)c3ccccc3o2)c(C(=O)Nc2ccc(CCN(Cc3cccnc3)Cc3ccc4c(c3)n(C)c(=O)n4C)cc2)cc1OC property_label=IC50 endpoint_value="100 to 250 nM"
compound_structure=COc1cc(NC(=O)c2cc(=O)c3ccccc3o2)c(C(=O)Nc2ccc(CCN(C)Cc3ccc4c(c3)CNN4C)cc2)cc1OC property_label=IC50 endpoint_value="> 1000 nM"
compound_structure=COc1cc(NC(=O)c2cc(=O)c3ccccc3o2)c(C(=O)Nc2ccc(CCN(C)Cc3ccc(-n4ccnc4)cc3)cc2)cc1OC property_label=IC50 endpoint_value="100 to 250 nM"
compound_structure=COc1cc(NC(=O)c2cc(=O)c3ccccc3o2)c(C(=O)Nc2ccc(CCN(Cc3ccc(N)nc3)Cc3ccc4c(cnn4C)c3)cc2)cc1OC property_label=IC50 endpoint_value="> 1000 nM"
compound_structure=COc1cc(NC(=O)c2cc(=O)c3ccccc3o2)c(C(=O)Nc2ccc(CCN(Cc3cccc(-n4ccnc4C)c3)Cc3ccc4c(cnn4C)c3)cc2)cc1OC property_label=IC50 endpoint_value="> 1000 nM"
compound_structure=COc1cc(NC(=O)c2cc(=O)c3ccccc3o2)c(C(=O)Nc2ccc(CCN(Cc3cncc(-c4ccccc4)c3)Cc3ccc4c(cnn4C)c3)cc2)cc1OC property_label=IC50 endpoint_value="> 1000 nM"
compound_structure=COc1cc(NC(=O)c2cc(=O)c(O)co2)c(C(=O)Nc2ccc(CCN(C)Cc3cccc(-n4ccnc4)c3)cc2)cc1OC property_label=IC50 endpoint_value="> 1000 nM"
compound_structure=COc1cc(NC(=O)c2cc(=O)c3ccccc3o2)c(C(=O)Nc2ccc(CCN(Cc3cncs3)Cc3cccc4cnn(C)c34)cc2)cc1OC property_label=IC50 endpoint_value="> 1000 nM"
compound_structure=CCN(CCc1ccc(NC(=O)c2cc(OC)c(OC)cc2NC(=O)c2cc(=O)c3ccccc3o2)cc1)Cc1ccc2oncc2c1 property_label=IC50 endpoint_value="> 1000 nM"
compound_structure=COc1cc(NC(=O)c2cc(=O)c3cc(C)ccc3o2)c(C(=O)Nc2ccc(CCN(Cc3ccc4c(cnn4C)c3)Cc3ccc4c(c3)nnn4C)cc2)cc1OC property_label=IC50 endpoint_value="> 1000 nM"
compound_structure=COc1cc(NC(=O)c2cc(=O)c3ccccc3o2)c(C(=O)Nc2ccc(CCN(Cc3cncc(-n4ccnc4C)c3)Cc3ccc4c(cnn4C)c3)cc2)cc1OC property_label=IC50 endpoint_value="500 to 1000 nM"

----------
This listing pairs compounds with measured IC50.
Target Or Test System: CYP3A4 (Homo sapiens)
Sequence (P08684 whole entry): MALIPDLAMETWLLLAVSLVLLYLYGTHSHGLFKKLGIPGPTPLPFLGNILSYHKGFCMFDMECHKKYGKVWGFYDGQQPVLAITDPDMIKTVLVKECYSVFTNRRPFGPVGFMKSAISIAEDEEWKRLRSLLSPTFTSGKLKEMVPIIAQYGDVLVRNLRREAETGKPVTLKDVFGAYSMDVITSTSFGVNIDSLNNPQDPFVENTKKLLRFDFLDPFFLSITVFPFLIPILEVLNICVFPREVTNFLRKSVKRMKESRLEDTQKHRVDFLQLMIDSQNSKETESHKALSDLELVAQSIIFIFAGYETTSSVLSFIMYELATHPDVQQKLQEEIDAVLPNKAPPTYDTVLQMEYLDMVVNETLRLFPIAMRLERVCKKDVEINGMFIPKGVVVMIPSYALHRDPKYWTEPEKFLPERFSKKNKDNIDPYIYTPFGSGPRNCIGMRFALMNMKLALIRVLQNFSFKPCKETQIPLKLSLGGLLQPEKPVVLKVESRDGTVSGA
Assay Procedure: Determination of CYP3A4 inhibitory activity (human liver microsome, Luciferin-IPA)
Experimental Context: CYP3A4 IC50 (nM), 37° C. 11 minutes
Property Label: IC50

compound="COc1cc(NC(=O)c2cc(=O)c3ccccc3o2)c(C(=O)Nc2ccc(CCN(Cc3ccc4c(c3)CCO4)Cc3ccc4c(cnn4C)c3)cc2)cc1OC [Compound 163]" endpoint_value="> 1000 nM"
compound="COc1cc(NC(=O)c2cc(=O)c3cc(C)ccc3o2)c(C(=O)Nc2ccc(CCN(Cc3cncc(-c4ccccc4)c3)Cc3ccc4c(cnn4C)c3)cc2)cc1OC [Compound 255]" endpoint_value="> 1000 nM"
compound="CCN(CCc1ccc(NC(=O)c2cc(OC)c(OC)cc2NC(=O)c2cc(=O)c3ccccc3o2)cc1)Cc1ccc(OC)c(OCCn2ccnc2)c1 [Compound 132]" endpoint_value="100 to 250 nM"
compound="COc1cncc(CN(CCc2ccc(NC(=O)c3cc(OC)c(OC)cc3NC(=O)c3cc(=O)c4ccccc4o3)cc2)Cc2ccc3c(c2)nnn3C)c1 [Compound 220]" endpoint_value="100 to 250 nM"
compound="CCN(CCc1ccc(NC(=O)c2cc(OC)c(OC)cc2NC(=O)c2cc(=O)c3ccccc3o2)cc1)Cc1ccc2cn[nH]c2c1 [Compound 185]" endpoint_value="> 1000 nM"
compound="COc1ccc(CN(CCc2ccc(NC(=O)c3ccc(C(=O)OCc4cccnc4)cc3NC(=O)c3cc(=O)c4ccccc4o3)cc2)Cc2ccc(OC)c(OC)c2)cc1OC [Compound 265]" endpoint_value="> 1000 nM"
compound="CCOc1cc(C(=O)Nc2ccc(CCN(C)Cc3cccc(-n4cnc(C)c4)c3)cc2)c(NC(=O)c2cc(=O)c3ccccc3o2)cc1OC [Compound 110]" endpoint_value="500 to 1000 nM"
compound="COc1cc(NC(=O)c2cc(=O)c3ccccc3o2)c(C(=O)NCc2ccc(CN(Cc3cccc(-n4ccnc4)c3)Cc3ccc4c(cnn4C)c3)cc2)cc1OC [Compound 233]" endpoint_value="100 to 250 nM"
compound="COc1cc(NC(=O)c2cc(=O)c3ccccc3o2)c(C(=O)Nc2ccc(CCN(Cc3cncc(F)c3)Cc3ccc4c(cnn4C)c3)cc2)cc1OC [Compound 46]" endpoint_value="250 to 500 nM"
compound="COc1cc(NC(=O)c2cc(=O)c3ccccc3o2)c(C(=O)Nc2ccc(CCN(Cc3ccc4cnn(C)c4c3)Cc3ccc4cnn(C)c4c3)cc2)cc1OC [Compound 170]" endpoint_value="> 1000 nM"
compound="COc1cc(NC(=O)c2cc(=O)c3ccccc3o2)c(C(=O)Nc2ccc(CCN(Cc3cccc(-n4cnc(C)c4)c3)Cc3ccc4c(cnn4C)c3)cc2)cc1OC [Compound 23]" endpoint_value="250 to 500 nM"
compound="COCCOc1cncc(CN(CCc2ccc(NC(=O)c3cc(OC)c(OC)cc3NC(=O)c3cc(=O)c4cc(C)ccc4o3)cc2)Cc2ccc3c(cnn3C)c2)c1 [Compound 60]" endpoint_value="250 to 500 nM"
compound="CCN(CCc1ccc(NC(=O)c2cc(OC)c(OC)cc2NC(=O)c2cc(=O)c3ccccc3o2)cc1)Cc1ccc2[nH]ncc2c1 [Compound 184]" endpoint_value="> 1000 nM"
compound="COc1cc(NC(=O)c2cc(=O)c3ccccc3o2)c(C(=O)Nc2ccc(CCN(C)C(=O)CCc3cccnc3)cc2)cc1OC [Compound 119]" endpoint_value="100 to 250 nM"
compound="CCN(CCc1ccc(NC(=O)c2cc(OC)c(OC)cc2NC(=O)c2cc(=O)c3ccccc3o2)cc1)Cc1ccc(OC)c(O)c1 [Compound 133]" endpoint_value="> 1000 nM"
compound="CCOc1cncc(CN(CCc2ccc(NC(=O)c3cc(OC)c(OC)cc3NC(=O)c3cc(=O)c4cc(C)ccc4o3)cc2)Cc2ccc3c(cnn3C)c2)c1 [Compound 73]" endpoint_value="250 to 500 nM"
compound="COc1cc(NC(=O)c2cc(=O)c3ccccc3o2)c(C(=O)Nc2ccc(CCN(C)Cc3cccc(-c4cccnc4)c3)cc2)cc1OC [Compound 7]" endpoint_value="500 to 1000 nM"
compound="CN(CCc1ccc(NC(=O)c2ccc(C(=O)O)cc2NC(=O)c2cc(=O)c3ccccc3o2)cc1)Cc1ccc2c(cnn2C)c1 [Compound 271]" endpoint_value="> 1000 nM"
compound="COc1cc(NC(=O)c2cc(=O)c3ccccc3o2)c(C(=O)Nc2ccc(CCN(Cc3cncc(C(C)C)c3)Cc3ccc4c(cnn4C)c3)cc2)cc1OC [Compound 253]" endpoint_value="500 to 1000 nM"
compound="COc1cc(NC(=O)c2cnc3ccccc3c2)c(C(=O)Nc2ccc(CCN(C)Cc3ccc(-n4ccnc4)cc3)cc2)cc1OC [Compound 2]" endpoint_value="100 to 250 nM"
compound="CCN(CCc1ccc(NC(=O)c2cc(OC)c(OC)cc2NC(=O)c2cc(=O)c3ccccc3o2)cc1)Cc1ccc2c(c1)CCO2 [Compound 162]" endpoint_value="> 1000 nM"
compound="COc1cc(NC(=O)c2cc(=O)c3ccccc3o2)c(C(=O)NCc2ccc(CN(Cc3cccc(-c4cncs4)c3)Cc3ccc4c(cnn4C)c3)cc2)cc1OC [Compound 236]" endpoint_value="> 1000 nM"
compound="COc1cc(NC(=O)c2cc(=O)c3ccccc3o2)c(C(=O)Nc2ccc(CCN(Cc3cccnc3)Cc3cnc(-c4ccccc4F)nc3)cc2)cc1OC [Compound 229]" endpoint_value="250 to 500 nM"
compound="COc1cncc(CN(CCc2ccc(NC(=O)c3cc(OC)c(OC)cc3NC(=O)c3cc(=O)c4ccccc4o3)cc2)Cc2cccc(-n3ccnc3)c2)c1 [Compound 217]" endpoint_value="100 to 250 nM"
